Values were extracted from paper PMC9873307.

- Method: Pharmacokinetics in plasma and brain after IP dosing
- Format: in vivo
- Reported conditions: male, Sprague Dawley, rat, plasma, ip, 5 mg/kg, plasma, 5 mg/kg IP, read-out: MRT0–last
- Description: Pharmacokinetics studies were carried out at WuXi Apptec, Inc. (Cranbury, NJ, USA) using standard protocols. All animal use and procedures were approved by the WuXi Apptec, Inc., IACUC. […] The bioanalytical assay provided a lower limit of quantification (LLOQ) of 1 ng/mL and an upper limit of quantification (ULOQ) of 3000 ng/mL for methylone. The plasma concentration-time data were analyzed using Phoenix WinNonlin (version 8.3) to characterize the PK properties of the analyte. […]
Measurement kind: MRT last (min)

> print(dat)
                                   compound  reported
1  CNC(C)C(=O)c1ccc2c(c1)OCO2 (stereo not shown) [methylone, 3,4-methylenedioxy-N-methylcathinone]        40
